Catalogue of composite z-score values
# assayed-system: E3 ubiquitin-protein ligase XIAP (Homo sapiens) (UniProt P98170)
# Sequence (P98170 whole entry, looked up): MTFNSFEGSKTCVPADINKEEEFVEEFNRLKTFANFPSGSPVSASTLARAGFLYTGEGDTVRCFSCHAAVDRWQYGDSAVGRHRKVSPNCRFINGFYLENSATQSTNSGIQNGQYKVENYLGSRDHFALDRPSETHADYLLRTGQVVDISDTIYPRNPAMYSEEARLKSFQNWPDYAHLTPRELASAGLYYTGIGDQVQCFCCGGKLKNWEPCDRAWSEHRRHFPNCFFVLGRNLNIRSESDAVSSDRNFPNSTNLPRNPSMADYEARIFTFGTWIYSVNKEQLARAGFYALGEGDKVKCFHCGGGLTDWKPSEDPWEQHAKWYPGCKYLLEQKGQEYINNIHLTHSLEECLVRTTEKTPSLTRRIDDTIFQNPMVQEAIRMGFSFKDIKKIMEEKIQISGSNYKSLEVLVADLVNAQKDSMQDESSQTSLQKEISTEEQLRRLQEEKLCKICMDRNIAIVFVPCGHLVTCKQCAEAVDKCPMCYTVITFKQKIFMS
# test-description: XIAP binders, primary screen, biophysical, small-molecule microarray, fluorescence 635 nm (AID 1181);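 also: score merges 667 nm emission and signal to noise over triplicate slides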
# recorded-conditions: small-molecule microarray binding, higher = more signal
test-readout: composite z-score

- molecule: "C[C@]1(C(=O)NCC(F)(F)F)c2ccccc2C(=O)N(Cc2ccccc2)[C@H]1c1ccc(CO)cc1"
  numeric-readout: -0.102
- molecule: "[N-]=[N+]=Nc1ccccc1C[C@]1(C(=O)O)N=C(c2ccc(OCCCO)cc2)O[C@H]1c1ccccc1"
  numeric-readout: -0.0562
- molecule: "O=C(O)[C@@H]1C[C@@H]2C(=O)N3CCC[C@H]3C(=O)N2[C@@H]1c1cccc(OCCO)c1"
  numeric-readout: 0.338
- molecule: "[N-]=[N+]=NCc1ccccc1C[C@@]1(C(=O)N2CCCCC2)N=C(c2ccc(OCCCO)cc2)O[C@@H]1c1ccccc1CN=[N+]=[N-]"
  numeric-readout: -0.117
- molecule: "O=C1C2C=CC(C(O)c3ccc(I)cc3)N(Nc3ccccc3)C2C(=O)N1c1ccccc1 (centres undefined)"
  numeric-readout: 0.162
- molecule: "C[C@@H]1ON(c2ccc(I)cc2)[C@H](c2ccc(OC(=O)OC(C)(C)C)cc2)[C@H]1C(=O)N1C(=O)OC[C@H]1Cc1ccccc1"
  numeric-readout: -0.0448
- molecule: "C=C(CCCC)C(=O)CC[C@H](OC(C)=O)c1ccc(OCCO)cc1"
  numeric-readout: 0.648
- molecule: "[N-]=[N+]=NCc1ccccc1[C@H]1OC(c2ccc(OCCCO)cc2)=N[C@@]1(Cc1ccccc1)C(=O)NCCN1CCOCC1"
  numeric-readout: 0.785
- molecule: "CC(C)[Si]1(C(C)C)OCc2cc(-c3ccc(-c4ccc(Cl)c(Cl)c4)o3)nc(CCc3ccccc3)c21"
  numeric-readout: -0.185
- molecule: "COCC(=C=CC[C@@H](O)c1cccc(OCCO)c1)CCO"
  numeric-readout: -0.241
- molecule: "C=CCC(OC(C)=O)[C@@H]1[C@@H](N(Cc2ccc(-c3cccc(C(F)(F)F)c3)o2)C(=O)Cc2ccc(OC)cc2)c2cc(OCCCO)ccc2N1C(=O)Cc1ccc2ccccc2c1 (some centres undefined)"
  numeric-readout: -0.0286
- molecule: "COCCCNC(=O)[C@@]1(c2ccc([N+](=O)[O-])cc2)CC(=O)N(CC23CC4CC(CC(C4)C2)C3)[C@@H]1c1ccc(CO)cc1I"
  numeric-readout: 0.144
- molecule: "COCC(=C=CC[C@H](O)c1cccc(OCCO)c1)C[C@H](O)COCc1ccccc1"
  numeric-readout: 0.0736
- molecule: "COc1ccc([Si](C)(C)[C@@H]2[C@@H](CCn3cc([C@H](O)c4ccccc4)nn3)O[C@]3(C(=O)N(Cc4cccc(N5C(=O)c6cccc7cccc5c67)c4)c4ccccc43)[C@H]2C)cc1"
  numeric-readout: -0.217
- molecule: "CN(C)C(=O)[C@@]1(CCC(=O)OC(C)(C)C)N=C(c2ccc(OCCCO)cc2)O[C@H]1c1ccccc1CN=[N+]=[N-]"
  numeric-readout: -0.0272
- molecule: "NC(=O)N1C(=O)C2C(C1=O)C1C=C(CCCO)C2C(C2CC2)N1Cc1cccc(OC(F)(F)F)c1 (centres undefined)"
  numeric-readout: 0.312
- molecule: "COCCOC(=O)N1C(=O)[C@@]2(c3cc(C#CCCO)ccc31)[C@H](c1ccccc1OCCO)N1[C@H](c3ccccc3)[C@H](c3ccccc3)OC(=O)[C@H]1[C@@H]2C(=O)N1CCCCCCC1"
  numeric-readout: 0.236
- molecule: "CCOC(=O)C1=C[C@@H](C(C)(C)C)N(S(=O)(=O)c2ccc(C)cc2)[C@H]1c1cccc(Cl)c1"
  numeric-readout: -0.0994
- molecule: "CC1(C)C(=O)C(c2ccccc2)=C2CN3C(=O)N(CCc4ccccc4)C(=O)C3(Cc3ccc(F)cc3)C=C21 (centres undefined)"
  numeric-readout: -0.198
- molecule: "CC=CC(O)C1C=CC2C(=O)NC(=O)C2N1Nc1ccccn1 (centres undefined)"
  numeric-readout: -0.031
- molecule: "COCCOC(=O)N1C(=O)[C@@]2(c3ccccc31)[C@H](c1ccc(OCCO)cc1)N1[C@H](c3ccccc3)[C@H](c3ccccc3)OC(=O)[C@H]1[C@@H]2C(=O)N1CCCCCCC1"
  numeric-readout: 2.64
- molecule: "CCCCC=C[C@@H](NC(=O)c1ccccc1)c1ccccc1"
  numeric-readout: 0.0348
- molecule: "CCOC(=O)C1=CC[C@@H](c2ccccc2)N(S(=O)(=O)c2ccc(C)cc2)[C@H]1c1cccc(OC)c1"
  numeric-readout: -0.022
- molecule: "C=CCC(OC(C)=O)[C@@H]1[C@@H](N(Cc2ccc(-c3cccc(C(F)(F)F)c3)o2)C(=O)c2ccc(C)cc2)c2cc(OCCCO)ccc2N1C(=O)Cc1ccc(OC)cc1 (some centres undefined)"
  numeric-readout: 0.0871
- molecule: "CC1(C)C(=O)C(c2ccccc2)=C2CN3C(=O)N(CCc4ccccc4)C(=O)C3(Cc3ccc(C(F)(F)F)cc3)C=C21 (centres undefined)"
  numeric-readout: 0.0322
- molecule: "CN1C=C(C(=O)OCCS(C)(=O)=O)C(C(=O)OCCS(C)(=O)=O)=CC(c2ccc(CO)cc2)=CC1c1cccs1 (centres undefined)"
  numeric-readout: 0.246
- molecule: "CC(C)C[C@@H]1NC(=O)[C@@]23C(=O)N[C@@H](Cc4ccccc4)C2[C@H](C)[C@@]2(C)O[C@H]2C3/C=C/C/C=C\\CNC(=O)[C@@H](C)NC1=O (some centres undefined)"
  numeric-readout: -0.116
- molecule: "COc1ccc(C(O)C2C=CC3C(=O)N(c4ccccc4)C(=O)C3N2Nc2ccccc2F)cc1 (centres undefined)"
  numeric-readout: 0.483
- molecule: "COC(=O)C(CC#Cc1ccc2c(c1)[C@]1(C(=O)N2)[C@H](C(=O)Nc2nc3ccccc3s2)[C@H]2C(=O)O[C@H](c3ccccc3)[C@H](c3ccccc3)N2[C@@H]1c1ccc(OCCO)cc1)C(=O)OC"
  numeric-readout: -0.0391

====

# assayed-system: Follistatin (Homo sapiens)
# test-description: follistatin binders on small-molecule microarrays, primary screen, biochemical, small-molecule microarray, 635/667 nm fluorescence (AID 1132)
# recorded-conditions: FST binding, 635 nm fluorescence, higher = more signal

- molecule: "O=C1[C@@]23C=C(Br)[C@H](C[C@@H]2COC3)[C@@]12CO2"
  composite z-score: 0.397
- molecule: "CC(C)C(=C=CC[C@@H](O)c1cccc(OCCO)c1)C[C@@H](O)c1ccccn1"
  composite z-score: 0.484
- molecule: "COCC1=C2[C@@H](CCc3ccccc3)OB(O)C[C@@H]2[C@@H]2C(=O)N(C)C(=O)[C@@H]2C1"
  composite z-score: 0.309
- molecule: "C=C(C)C1CCC(C(O)C2C=CC3C(=O)N(C)C(=O)C3N2Nc2cc(OC)c(OC)c(OC)c2)CC1 (stereo not given)"
  composite z-score: 1.31
- molecule: "[N-]=[N+]=Nc1ccccc1C[C@]1(C(=O)O)N=C(c2ccc(OCCCO)cc2)O[C@H]1c1ccccc1"
  composite z-score: 0.968

====

# test-description: small-molecule binders of probe aLefty1, primary screen, biochemical, small-molecule microarray, 635/667 nm fluorescence (AID 1153);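 also: score merges spot fluorescence with signal-to-noise ratio from the scanned slide images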
# recorded-conditions: higher = more signal

- compound: "COc1ccc([Si](C)(C)[C@H]2[C@H](CCO)O[C@@]3(C(=O)N(Cc4ccccc4)c4ccc(N5C(=O)c6ccccc6Oc6ccccc65)cc43)[C@@H]2C)cc1"
  composite z-score: 0.121
- compound: "Cc1c(NC(=O)/C(C#N)=C/c2ccccc2Cl)c(=O)n(-c2ccccc2)n1C"
  composite z-score: -0.296
- compound: "COCCOC(=O)N1C(=O)[C@@]2(c3ccccc31)[C@H](c1ccc(OCCO)cc1)N1[C@H](c3ccccc3)[C@H](c3ccccc3)OC(=O)[C@H]1[C@@H]2C(=O)N1CCCCCCC1"
  composite z-score: 2.77
- compound: "O=C1C2C=CC(C(O)c3ccco3)N(Nc3ccccc3)C2C(=O)N1c1ccccc1 (centres undefined)"
  composite z-score: -0.0302

====

# test-description: HepG2 liver cancer cell viability effects, profiling panel, resazurin fluorescence, 24 h, PK04 Diversity Set (AID 1172); also: test concentration not given here
# recorded-conditions: higher = more signal
Decision: z-score >= -0.04 yields condition met, all other cases yield condition not met.

- molecule: "COC(=O)[C@@]1(Cc2ccc(OC)cc2)[C@H]2c3cc(C(=O)N4CCCC4)n(Cc4ccc(OC(F)(F)F)cc4)c3C[C@H]2CN1C(=O)c1ccccc1"
  assigned-label: "condition not met"
- molecule: "CC(C)C[C@@H]1NC(=O)[C@H]2C[C@@H](C(=O)NCCCCCN)[C@@H](c3cccc(OCCO)c3)N2C1=O"
  assigned-label: "condition not met"
- molecule: "O=C1C[C@@](C(=O)NCc2ccccc2)(c2ccc([N+](=O)[O-])cc2)[C@@H](c2ccc(CO)cc2I)N1CC12CC3CC(CC(C3)C1)C2"
  assigned-label: "condition not met"
- molecule: "CC(C)OC(=O)CC(=O)CC(O)c1ccc([N+](=O)[O-])cc1 (centres undefined)"
  assigned-label: "condition not met"
- molecule: "COc1ccc([Si](C)(C)[C@@H]2[C@@H](CC(=O)N3Cc4ccccc4C[C@H]3CO)O[C@]3(C(=O)N(Cc4ccc(N5CCC5=O)cc4)c4ccccc43)[C@H]2C)cc1"
  assigned-label: "condition met"
- molecule: "CN1C(=O)C2C=CC(C(O)c3cc(C(F)(F)F)cc(C(F)(F)F)c3)N(Nc3ccccc3)C2C1=O (centres undefined)"
  assigned-label: "condition met"
- molecule: "COc1ccc(C(O)C2C=CC3C(=O)N(c4ccccc4)C(=O)C3N2Nc2ccccc2F)cc1 (centres undefined)"
  assigned-label: "condition not met"
- molecule: "O=C1O[C@H](c2ccccc2)[C@H](c2ccccc2)N2[C@H]1[C@@H](C(=O)Nc1nc3ccccc3s1)[C@]1(C(=O)Nc3ccc(C#CC4=CCCCC4)cc31)[C@H]2c1ccc(O)cc1"
  assigned-label: "condition met"
- molecule: "C=C(C)[C@@H]1CC=C(C(O)C2C=CC3C(=O)N(c4ccccc4)C(=O)C3N2Nc2ccc(C#N)cc2)CC1 (some centres undefined)"
  assigned-label: "condition not met"
- molecule: "COc1ccc(C#Cc2ccc3c(c2)[C@]2(C(=O)N3)[C@H](C(=O)Nc3nc4ccccc4s3)[C@H]3C(=O)O[C@H](c4ccccc4)[C@H](c4ccccc4)N3[C@@H]2c2ccccc2OCCO)cc1"
  assigned-label: "condition met"
- molecule: "COc1cc2c(cc1O)C(c1ccc(CN3CCCC3)cc1)N(C)CC2 (centres undefined)"
  assigned-label: "condition not met"
- molecule: "CC1CC/C=C\\[C@H]2OC34C=CCN(CCN5CCOCC5)C(=O)[C@H]3N(C(C)CO)C(=O)[C@@H]4C2C(=O)O1 (some centres undefined)"
  assigned-label: "condition met"
- molecule: "COCC(=C=CC[C@@H](O)c1cccc(OCCO)c1)CCO"
  assigned-label: "condition not met"
- molecule: "CCCNC(=O)[C@@]1(C)c2ccccc2C(=O)N(Cc2ccccc2)[C@H]1c1ccc(CO)cc1"
  assigned-label: "condition met"
- molecule: "COCCCNC(=O)[C@@]1(Sc2ccc(C)cc2)CC(=O)N(Cc2ccccc2Cl)[C@@H]1c1ccc(CO)cc1I"
  assigned-label: "condition met"
- molecule: "C=C/C=C/[C@@H]1C(=C)CN([C@@H](Cc2ccccc2)C(=O)OC)[C@H]1[C@@H](O)Cc1ccccc1"
  assigned-label: "condition met"
- molecule: "NC(=O)[C@H]1[C@@H]2C(=O)O[C@@H](c3ccccc3)[C@@H](c3ccccc3)N2[C@@H](c2ccc(O)cc2)[C@]12C(=O)Nc1ccccc12"
  assigned-label: "condition not met"
- molecule: "CC(C)CNC(=O)[C@@]1(C)c2ccccc2C(=O)N(Cc2cc(C(F)(F)F)cc(C(F)(F)F)c2)[C@H]1c1ccc(CO)cc1"
  assigned-label: "condition not met"
- molecule: "O=C(N1CCOCC1)[C@@]1(CCS(=O)(=O)c2ccccc2)N=C(c2ccc(OCCCO)cc2)O[C@H]1c1ccccc1"
  assigned-label: "condition not met"
- molecule: "CCOC(=O)C1=C[C@@H](C(C)(C)C)N(S(=O)(=O)c2ccc(C)cc2)[C@H]1c1cccc(Cl)c1"
  assigned-label: "condition not met"
- molecule: "COCCOC(=O)N1C(=O)[C@@]2(c3ccccc31)[C@H](c1ccc(OCCO)cc1)N1[C@H](c3ccccc3)[C@H](c3ccccc3)OC(=O)[C@H]1[C@@H]2C(=O)N1CCCCCCC1"
  assigned-label: "condition met"
- molecule: "CCOC(=O)C1=CC[C@@H](c2ccccc2)N(S(=O)(=O)c2ccc(C)cc2)[C@H]1C=Cc1ccccc1"
  assigned-label: "condition met"
- molecule: "CCCCNC(=O)c1ccc(C#C[Si](C(C)C)(C(C)C)C(C)C)c(OC(C)=O)c1"
  assigned-label: "condition met"
- molecule: "CN1C(=O)C2C=CC(C(O)c3ccc(F)cc3)N(NC(=O)OC(C)(C)C)C2C1=O (centres undefined)"
  assigned-label: "condition not met"
- molecule: "COC(=O)C1=CC(CCCO)=CC(c2ccc(CN3CCCC3)cc2)N(Cc2cc3c(cc2Br)OCO3)C=C1C(=O)OC (centres undefined)"
  assigned-label: "condition met"
- molecule: "CN(C)C(=O)[C@]1(CCS(=O)(=O)c2ccccc2)N=C(c2ccc(OCCCO)cc2)O[C@@H]1c1ccccc1"
  assigned-label: "condition met"
- molecule: "C=CCNC(=O)[C@@H]1[C@H]2C(=O)O[C@H](c3ccccc3)[C@H](c3ccccc3)N2[C@H](c2ccc(OCCO)cc2)[C@@]12C(=O)N(C(=O)OCCOC)c1ccc(C#CCCO)cc12"
  assigned-label: "condition met"
- molecule: "COC(=O)C1N=C(c2ccc(OCCCO)cc2)N(c2ccccc2)O1 (centres undefined)"
  assigned-label: "condition met"
- molecule: "NC(=O)[C@@H]1[C@H]2C(=O)O[C@H](c3ccccc3)[C@H](c3ccccc3)N2[C@H](c2ccc(OCCO)cc2)[C@@]12C(=O)Nc1ccc(C#CCCO)cc12"
  assigned-label: "condition not met"
